Experiment: Cellular viability qHTS for adrenocortical cancer (ACC) cell line SW-13 (AID 1963989);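 note: cells grown in serum-free medium with ITS supplement; % is set by controls: 0 for no effect and ±100 for the full control effect; nearly all actives have a fitted effect of over 65% in size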
Details: SW-13 ACC cells viability, CellTiter-Glo, 48 h; hits give low values
Inconclusive results are not listed.

# compound, activity (max response) (%)
rows = [
    ("CC(Cc1ccccc1)NCCCCl (stereo unspecified)", -2.78),
    ("CN1[C@H]2CC(O)C[C@H]1[C@H]1O[C@H]12 (stereo partly specified)", 10.2),
    ("CCOC(=O)NC(C)(C)Cc1ccc(Cl)cc1", -3.94),
    ("CC1=C2C[C@H]3[C@@H](CC=C4C[C@@H](O)CC[C@@]43C)[C@@H]2CC[C@]12O[C@@H]1C[C@H](C)CN[C@H]1[C@H]2C", -8.25),
    ("O=c1n(Cl)c(=O)n(Cl)c(=O)n1Cl", 8.14),
    ("C=CCN1CC[C@]23c4c5ccc(O)c4O[C@H]2C(=O)CC[C@@]3(O)[C@H]1C5", -2.59),
]
